# Protocol notes: DPPH radical scavenging activity at 100 uM
# Format: functional
Threshold check on Activity: at or above 10% gives yes (1), strictly below gives no (0).

Could you verify whether the entry COc1cc2c(c(OC)c1O)-c1c(cc(OC)c(OC)c1O)C[C@@H](C)[C@@H](C)[C@H]2OC(=O)/C=C/c1ccccc1 shows Activity of no less than 10%?
yes (1)

Could you verify whether the entry COc1cc2c(c(O)c1OC)-c1c(cc3c(c1OC)OCO3)[C@H](OC(=O)c1ccccc1)[C@H](C)[C@H](C)[C@H]2OC(C)=O shows Activity of no less than 10%?
no (0)

Could you verify whether the entry C/C=C(\C)C(=O)O[C@H]1[C@@](C)(O)[C@@H](C)[C@H]2O[C@@]13CC(=O)C(OC)=C(OC)C31COc3c4c(cc2c31)OCO4 (stereo partly drawn) shows Activity of no less than 10%?
no (0)

Could you verify whether the entry C/C=C(\C)C(=O)O[C@@H]1C2=CC(OC)=C(OC)C(=O)C23COc2c4c(cc(c23)[C@@H](OC(=O)c2ccccc2)[C@H](C)[C@]1(C)O)OCO4 (stereo partly drawn) shows Activity of no less than 10%?
yes (1)

Could you verify whether the entry O=C1O[C@H]([C@@H](O)CO)C(O)=C1O shows Activity of no less than 10%?
yes (1)

Could you verify whether the entry COc1cc2c(c(O)c1OC)-c1c(cc3c(c1OC)OCO3)[C@H](O)[C@H](C)[C@H](C)C2 shows Activity of no less than 10%?
no (0)

Could you verify whether the entry C/C=C(\C)C(=O)O[C@H]1[C@@](C)(O)[C@@H](C)[C@H]2O[C@@]13CC(OC)=C(OC)C(=O)C31COc3c4c(cc2c31)OCO4 (stereo partly drawn) shows Activity of no less than 10%?
no (0)

Could you verify whether the entry C/C=C(\C)C(=O)O[C@@H]1c2cc3c(c4c2C2(CO4)C(=O)C(OC)=C(OC)C=C2[C@@H](OC(=O)c2ccccc2)[C@@](C)(O)[C@H]1C)OCO3 (stereo partly drawn) shows Activity of no less than 10%?
yes (1)
